Recorded measurements of AVG Max binding, one per entry
# target.or.test.system: T1, prostate specific membrane antigen (PSMA), full-length human (human, UniProt Q04609 1-750)
# T1 construct: also called cell-surface PSMA; full-length PSMA
# T1 sequence (Q04609 whole entry): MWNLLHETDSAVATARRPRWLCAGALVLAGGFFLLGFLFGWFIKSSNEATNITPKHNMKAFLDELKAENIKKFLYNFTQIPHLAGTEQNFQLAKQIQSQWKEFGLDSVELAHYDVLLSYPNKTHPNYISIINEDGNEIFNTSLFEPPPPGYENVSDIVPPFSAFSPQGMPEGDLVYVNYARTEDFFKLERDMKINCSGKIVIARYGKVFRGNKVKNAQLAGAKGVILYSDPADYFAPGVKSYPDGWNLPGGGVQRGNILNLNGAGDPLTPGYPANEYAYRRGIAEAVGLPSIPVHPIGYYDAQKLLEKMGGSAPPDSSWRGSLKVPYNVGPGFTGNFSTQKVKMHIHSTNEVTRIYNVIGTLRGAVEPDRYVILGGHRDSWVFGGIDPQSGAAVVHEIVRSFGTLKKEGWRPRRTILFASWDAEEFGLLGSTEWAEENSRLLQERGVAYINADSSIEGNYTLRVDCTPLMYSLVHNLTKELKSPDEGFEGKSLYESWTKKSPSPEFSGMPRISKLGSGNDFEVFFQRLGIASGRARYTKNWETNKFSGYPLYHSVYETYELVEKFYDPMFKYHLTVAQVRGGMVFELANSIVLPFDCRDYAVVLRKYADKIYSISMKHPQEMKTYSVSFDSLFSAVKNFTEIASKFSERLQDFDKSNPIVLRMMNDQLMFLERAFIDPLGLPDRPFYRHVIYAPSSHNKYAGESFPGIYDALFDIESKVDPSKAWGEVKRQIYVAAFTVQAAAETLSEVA
# method.summary: FACS, 3T3-PSMA cells
Lab note: jot down the number only; don't add units.

AB-PG1-XG1-026 (antibody, V domains shown, also called XG-026; PRGX1-XG1-026) VH: QVQLVESGGGVVQPGRSLRLSCAASGFTFSNYVMHWVRQAPGKGLEWVAIIWYDGSNKYYADSVKGRFTISRDNSKNTLYLQMNSLRAEDTAVYYCAGGYNWNYEYHYYGMDVWGQGTTVTVSS VL: DIQMTQSPSSLSASVGDRVTITCRASQGITNYLAWFQQKPGKAPKSLIYAASSLQSGVPSKFSGSGSGTDFSLTISSLQPEDFATYYCQQYNSYPITFGQGTRLEIK; 148
AB-PG1-XG1-069 (antibody, V domains shown, also called PRGX1-XG1-069) VH: EVQLVQSGAEVKKPGESLKISCKGSGYSFTSYWIGWVRQMPGKGLEWMGIIYPGDSDTRYSPSFQGQVTISADKSISTAYLQWSSLKASDTAMYYCARRMAAAGPFDYWGQGTLVTVSS VL: GIVMTQSPATLSVSPGERATLSCRTSQSIGWNLAWYQQKPGQAPRLLIYGASSRTTGIPARFSGSGSGTEFTLTISSLQSEDSAVYYCQHYDNWPMCSFGQGTELEIK; 71

Consider the record given below.
IN: Looking for the measured AVG Max binding of AB-PG1-XG1-006 (antibody, V domains shown, also called XG-006; PRGX1-XG1-006) VH: QVQLVESGGGVVQPGRSLRLSCAASGFAFSRYGMHWVRQAPGKGLEWVAVIWYDGSNKYYADSVKGRFTISRDNSKNTQYLQMNSLRAEDTAVYYCARGGDFLYYYYYGMDVWGQGTTVTVSS VL: DIQMTQSPSSLSASVGDRVTITCRASQGISNYLAWYQQKTGKVPKFLIYEASTLQSGVPSRFSGGGSGTDFTLTISSLQPEDVATYYCQNYNSAPFTFGPGTKVDIK , can you help?
OUT: 183
